Reference for the values: ChEMBL document CHEMBL4251613

- System: RAW264.7
- assay: Cytotoxicity against mouse RAW264.7 cells assessed as reduction in cell viability at 30 uM after 18 hrs by MTT assay
- Type: cell-based
- details: raw264.7, 18 h
resultType: Activity

# compound, result
measured = [
    ("COc1ccc2cc1Oc1ccc(cc1)C[C@@H]1NC(=O)N(CCC2)C1=O", "Non-Toxic"),
    ("Oc1ccc2cc1Oc1ccc(cc1)CCc1cn(nn1)CC2", "Non-Toxic"),
    ("Cc1c(C)c2c(c(C)c1O)CCC(C)(C(=O)O)O2 (stereo not drawn) [TROLOX]", "Non-Toxic"),
]

* * *

- Tested on: RAW264.7
- assay: Cytotoxicity against mouse RAW264.7 cells assessed as reduction in cell viability at 30 to 50 uM after 18 hrs by MTT assay
- Format: cell-based
- details: raw264.7, 18 h
resultType: Activity

# molecule, Activity
data = [
    ("COc1ccc(CCCNC(=O)CCc2ccc(O)cc2)cc1Br", "Toxic"),
    ("COc1ccc2cc1Oc1ccc(cc1)C[C@H](N)C(=O)NCCC2", "Non-Toxic"),
    ("O=C1CCc2ccc(cc2)Oc2cc(ccc2O)CCCN1", "Non-Toxic"),
    ("Oc1ccc2cc1Oc1ccc(cc1)CC/C=C\\C(O)CC2 (stereo not given)", "Toxic"),
]

Kindly consider the entry below.
Query: Using the record for COc1ccc(CCCNC(=O)[C@@H](N)Cc2ccc(O)cc2)cc1Br , state its measured Activity.
Response: Non-Toxic
